Numbers sourced from patent US20210188980A1.

Target: T1, human PD-1 ECD/Fc fusion protein (human)
T1 construct: also called huPD-1/Fc; HuPD-1 ECD/Fc
T1 sequence (chain, as listed by the source limits assumed): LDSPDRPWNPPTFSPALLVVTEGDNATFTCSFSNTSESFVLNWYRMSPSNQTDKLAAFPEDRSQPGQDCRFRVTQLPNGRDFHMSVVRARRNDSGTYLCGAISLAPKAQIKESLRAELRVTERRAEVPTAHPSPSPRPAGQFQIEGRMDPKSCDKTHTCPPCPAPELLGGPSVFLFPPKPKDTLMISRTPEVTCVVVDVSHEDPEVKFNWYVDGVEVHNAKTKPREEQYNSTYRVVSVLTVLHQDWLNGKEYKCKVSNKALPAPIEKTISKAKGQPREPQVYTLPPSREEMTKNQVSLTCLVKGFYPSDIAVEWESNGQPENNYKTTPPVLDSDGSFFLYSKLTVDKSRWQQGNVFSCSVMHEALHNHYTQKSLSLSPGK
Assay: ELISA, coated huPD-1/Fc
EXPERIMENTAL_READOUT: pEC50
API: returns pEC50 as number; meaning -log10 of concentration in mol/L.

Dear colleague, I am looking for the recorded pEC50 of the following binder: mAb719 (antibody, V domains shown, murine hybridoma anti-PD-1 mAb) VH: EVKLVESGGGLVKPGGSLKLSCTASGFSFSSHLMSWVRQTPEKRLEWVAAISGGGADTYYPDSVKGRFTISRDNAKNTLYLQMRSLRSEDTALYYCTRQILAFDSWGQGTTLTVSS VL: DIQMNQSPSSLSVSLGDTITITCHASQNIYVWLNWYQQKPGNIPKLLIYKASNLHTGVPSRFSGGGSGTGFTLTISSLQPEDIATYYCQQGQSYPWTFGGGTKLEIK
10.70

Dear colleague, I am looking for the recorded pEC50 of the following binder: mAb701 (antibody, V domains shown, murine hybridoma anti-PD-1 mAb) VH: EVLLVESGGGLVKPGGSLKLSCAASGFTFSSYMMSWIRQTPERRLEWVASMSGGGRDTYYPDSVKGRFTISRDNAKNTLYLQMSSLRSEDTALYYCARRGTYAMDYWGQGTSVTVSS VL: DIQMTQSPASQSASLGESVTITCLASQTIGTWLTWYQQKPGKSPQLLIYAATSLADGVPSRFSGSGSGTKFSFKISSLQAEDFVSYYCQQLYSTPWTFGGGTKLEIK
10.00

Please examine the following record next.
Dear colleague, I am looking for the recorded pEC50 of the following binder: mAb713 (antibody, V domains shown, murine hybridoma anti-PD-1 mAb) VH: EVKLVESGGGLVKPGGSLELSCAASGFTSSDYGMHWVRQAPEKGLEWVAYISSGSYTIYYADTVKGRFTISRDNAKNTLFLQMTSLRSEDTAMYYCAKRGGSSHVNVMDYWGQGTSVTVSS VL: DIQMTQSSSYLSVSLGGRVTITCKASDHINNWLAWYQQKPGNAPRLLISGATSLETGVPSRFSGSGSGKDYTLSITSLQTEDVATYYCQQYWSPPYTFGGGTKLEIK
10.10
